Test: Plasma free fraction (f1) and filter retention by ultrafiltration
Format: in vitro ADME, baboon
Settings: male, monkey; baboon plasma, ultrafiltration; mean ± SD of four experiments
Reported Property: fraction unbound at 20 min
# print the numeric value only

Please fill in: fraction unbound at 20 min reported for CN(C)Cc1ccccc1Sc1ccc(I)cc1N [[^11C]ADAM] = 0.009

Please fill in: fraction unbound at 20 min reported for CN(C)Cc1ccccc1Sc1ccc(Br)cc1N [[^11C]DAPA] = 0.018

* * *

Test: Experiment 5: plasma clearance of ^11C and ^18F labeled AFM, AFA, AFE in one baboon
Assay type: in vivo
Settings: one adult male baboon, n = 1 to 4 scans
Tick Condition met if Clearance is 70 L/h or greater. Tick Condition not met if Clearance is less than 70 L/h.

// inclusive: Clearance at least 70 L/h? input: CN([11CH3])Cc1ccccc1Sc1ccc(CF)cc1N [[^11C]AFM]
Condition not met

// inclusive: Clearance at least 70 L/h? input: CN(C)Cc1ccccc1Sc1ccc(C[18F])cc1N [[^18F]AFM]
Condition not met

// inclusive: Clearance at least 70 L/h? input: CN([11CH3])Cc1ccccc1Sc1ccc(F)cc1N [[^11C]AFA]
Condition not met

// inclusive: Clearance at least 70 L/h? input: CN(C)Cc1ccccc1Sc1ccc(CCF)cc1N [[^11C]AFE]
Condition met

* * *

Please provide measured Equilibrium specific to non-specific partition coefficient (V3″) Temporal Cortex for the entries that follow.
Tested on: SERT
Assay: Baboon PET imaging: brain uptake, kinetic analysis and SERT parameters
Assay type: in vivo
Conditions: Mean ± SD of four experiments in two baboons
# print the numeric value only

Bench note, SERT: entry CN([11CH3])Cc1ccccc1Sc1ccc(CF)cc1N [[^11C]AFM] , its Equilibrium specific to non-specific partition coefficient (V3″) Temporal Cortex = 0.39

Bench note, SERT: entry CN(C)Cc1ccccc1Sc1ccc(Br)cc1N [[^11C]DAPA] , its Equilibrium specific to non-specific partition coefficient (V3″) Temporal Cortex = 0.38

Bench note, SERT: entry CN(C)Cc1ccccc1Sc1ccc(I)cc1N [[^11C]ADAM] , its Equilibrium specific to non-specific partition coefficient (V3″) Temporal Cortex = 0.34

Bench note, SERT: entry CN(C)Cc1ccccc1Sc1ccc(C#N)cc1N [[^11C]DASB] , its Equilibrium specific to non-specific partition coefficient (V3″) Temporal Cortex = 0.29

* * *

Test system: SERT
Experiment: Baboon PET imaging: brain uptake, kinetic analysis and SERT parameters
Type: in vivo
Conditions: baboons, mean ± SD of four experiments
Reported Property: Regional uptake peak time Cingulate Cortex
Returns: string containing the number followed by the unit.

Bench note, SERT: entry CN(C)Cc1ccccc1Sc1ccc(Br)cc1N [[^11C]DAPA] , its Regional uptake peak time Cingulate Cortex = 36 ± 8 min

Bench note, SERT: entry CN(C)Cc1ccccc1Sc1ccc(I)cc1N [[^11C]ADAM] , its Regional uptake peak time Cingulate Cortex = 32 ± 17 min

Bench note, SERT: entry CN(C)Cc1ccccc1Sc1ccc(C#N)cc1N [[^11C]DASB] , its Regional uptake peak time Cingulate Cortex = 14 ± 3 min

Bench note, SERT: entry CN([11CH3])Cc1ccccc1Sc1ccc(CF)cc1N [[^11C]AFM] , its Regional uptake peak time Cingulate Cortex = 28 ± 11 min

Bench note, SERT: entry [11CH3]Sc1ccc([C@H]2CN3CCC[C@H]3c3ccccc32)cc1 [[^11C]McN 5652] , its Regional uptake peak time Cingulate Cortex = 17 ± 3 min
